- target.entity: Cannabinoid receptor 1 (Homo sapiens, UniProt P21554)
- Sequence (P21554 whole entry): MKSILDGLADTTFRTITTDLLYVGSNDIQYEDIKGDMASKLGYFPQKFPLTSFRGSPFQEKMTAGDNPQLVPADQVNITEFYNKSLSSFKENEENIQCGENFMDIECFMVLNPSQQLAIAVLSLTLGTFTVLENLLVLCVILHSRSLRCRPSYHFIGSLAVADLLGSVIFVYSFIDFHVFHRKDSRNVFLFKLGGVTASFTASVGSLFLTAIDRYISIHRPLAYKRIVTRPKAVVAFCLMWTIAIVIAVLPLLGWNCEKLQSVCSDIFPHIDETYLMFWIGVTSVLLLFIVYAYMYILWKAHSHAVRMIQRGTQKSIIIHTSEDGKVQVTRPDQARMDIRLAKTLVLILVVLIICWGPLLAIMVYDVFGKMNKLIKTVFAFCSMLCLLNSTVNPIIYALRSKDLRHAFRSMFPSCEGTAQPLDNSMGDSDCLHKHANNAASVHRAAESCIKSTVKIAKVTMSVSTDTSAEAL
- assay.details: biochemical
- Assay type: cell-based, HEK293
- Description: Displacement of [3H]CP-55940 from human CB1 receptor expressed in HEK293 cells
pKi: −log10 of the molar value.
assay.endpoint: pKi

O=C(NN1CCCCC1)c1nn(-c2ccc(Cl)cc2Cl)c2c1CCCc1cc(Cl)ccc1-2 7.74
Cc1cc(Cl)ccc1-c1c(C)c(C(=O)NN2CCCCC2)nn1-c1ccc(Cl)cc1Cl 7.79
Cc1c(C(=O)NN2CCCCC2)nn(-c2c(Cl)cc(Cl)cc2Cl)c1-c1ccc(Cl)cc1Cl 6.58
O=C(NN1CCCCC1)c1nn(-c2ccc(Cl)cc2Cl)c2c1CCCCc1cc(Cl)ccc1-2 7.39
Cc1cc(Cl)cc(C)c1-c1c(C)c(C(=O)NN2CCCCC2)nn1-c1ccc(Cl)cc1Cl 6.71
Cc1cc(Cl)ccc1-c1c(C)c(C(=O)NN2CCCCC2)nn1-c1c(Cl)cc(Cl)cc1Cl 6.60
Cc1c(C(=O)NN2CCCCC2)nn(-c2ccc(Cl)cc2Cl)c1-c1ccc(Cl)cc1Cl 7.47

###

The entries below are paired with their reported pKi.
- target.entity: Cannabinoid receptor 2 (Homo sapiens, UniProt P34972)
- Sequence (P34972 whole entry): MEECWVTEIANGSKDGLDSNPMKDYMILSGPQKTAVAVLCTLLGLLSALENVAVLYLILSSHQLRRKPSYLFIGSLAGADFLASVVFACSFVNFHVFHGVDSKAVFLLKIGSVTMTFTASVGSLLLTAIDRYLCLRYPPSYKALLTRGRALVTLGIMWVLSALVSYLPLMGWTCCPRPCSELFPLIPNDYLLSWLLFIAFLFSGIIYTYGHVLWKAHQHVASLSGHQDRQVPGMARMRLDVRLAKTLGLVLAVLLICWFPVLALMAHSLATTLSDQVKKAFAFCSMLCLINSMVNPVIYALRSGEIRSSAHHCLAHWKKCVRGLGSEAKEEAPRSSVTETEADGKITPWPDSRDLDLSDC
- assay.details: Displacement of [3H]CP-55940 from human CB2 receptor expressed in CHO-K1 cells
- Assay type: cell-based
pKi: −log10 of the molar value.
assay.endpoint: pKi

Cc1cc(Cl)ccc1-c1c(C)c(C(=O)NN2CCCCC2)nn1-c1ccc(Cl)cc1Cl 5.95
Cc1c(C(=O)NN2CCCCC2)nn(-c2ccc(Cl)cc2Cl)c1-c1ccc(Cl)cc1Cl 5.98
Cc1c(C(=O)NN2CCCCC2)nn(-c2c(Cl)cc(Cl)cc2Cl)c1-c1ccc(Cl)cc1Cl 5.96
Cc1cc(Cl)ccc1-c1c(C)c(C(=O)NN2CCCCC2)nn1-c1c(Cl)cc(Cl)cc1Cl 5.75
O=C(NN1CCCCC1)c1nn(-c2ccc(Cl)cc2Cl)c2c1CCCCc1cc(Cl)ccc1-2 6.31
Cc1cc(Cl)cc(C)c1-c1c(C)c(C(=O)NN2CCCCC2)nn1-c1ccc(Cl)cc1Cl 6.12

###

The entries below are paired with their reported pKi.
- target.entity: UniProtKB P21554
- assay.details: Binding affinity to CB1 receptor
pKi: −log10 of the molar value.
assay.endpoint: pKi

O=C(NN1CCCCC1)c1nn(-c2ccc(Cl)cc2Cl)c2c1CCCc1cc(Cl)ccc1-2 12.46
O=C(NN1CCCCC1)c1nn(-c2ccc(Cl)cc2Cl)c2c1CCc1cc(Cl)ccc1-2 7.82

###

- target.entity: Cannabinoid receptor 1 (Homo sapiens)
- assay.details: biochemical
- Type: cell-based, CHO-K1
pKi: −log10 of the molar value.
Outcome: 1 for pKi of at least 8; 0 for anything lower.

Cc1cc(Cl)cc(C)c1-c1c(C)c(C(=O)NN2CCCCC2)nn1-c1ccc(Cl)cc1Cl 0
O=C(NN1CCCCC1)c1nn(-c2ccc(Cl)cc2Cl)c2c1CCCc1cc(Cl)ccc1-2 1
Cc1c(C(=O)NN2CCCCC2)nn(-c2ccc(Cl)cc2Cl)c1-c1ccc(Cl)cc1Cl 0
Cc1cc(Cl)ccc1-c1c(C)c(C(=O)NN2CCCCC2)nn1-c1c(Cl)cc(Cl)cc1Cl 0
Cc1c(C(=O)NN2CCCCC2)nn(-c2c(Cl)cc(Cl)cc2Cl)c1-c1ccc(Cl)cc1Cl 0
